Give measured z-score for each item. Keep answers brief.
- protocolSummary: survival rescue of mitochondrial mutant cells in low glucose, primary screen, MELAS cybrids, Rieske KO mouse fibroblasts, CellTiter-Glo (AID 1508586);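 note: test concentration not given here; z relative to plate mean and SD of compound and empty wells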
- details: MELAS cybrid survival, CellTiter-Glo 48 h, stronger effect = higher value
Returns: the value as a bare number; no unit string appended.

Fill blank: measured z-score of the molecule CCN(CC)CCNC(C(=O)OCCC(C)C)c1ccccc1 (stereo not drawn) is ____. 0.328

Need z-score of CC[C@H]1OC(=O)[C@H](C)[C@@H](O[C@H]2C[C@@](C)(OC)[C@@H](O)[C@H](C)O2)[C@H](C)[C@@H](O[C@@H]2O[C@H](C)C[C@H](N(C)C)[C@H]2O)[C@](C)(O)C[C@@H](C)/C(=N\OCOCCOC)[C@H](C)[C@@H](O)[C@]1(C)O , thanks. -0.323

What value of z-score has been recorded for this entry: CN(C)CCN(Cc1cccs1)c1ccccn1 0.365
